Source: ChEMBL document CHEMBL4138123

Tested on: LOX IMVI
assay-notes: Cytotoxicity against human LOXIMVI cells assessed as growth inhibition after 48 hrs by sulforhodamine B assay
Type: functional
test-readout: TGI (µM)

smiles-str	recorded-value
COc1ccc(C(=O)/C=C/c2cc(-c3ccc(OC)c(OC)c3)n[nH]2)cc1OC	2.7
COc1ccc(C(=O)/C=C/c2cc(-c3ccc4c(c3)OCO4)n[nH]2)cc1OC	4.08
COc1cc(C(=O)/C=C/c2cc(-c3cc(OC)c(OC)c(OC)c3)n[nH]2)cc(OC)c1OC	2.91
COc1ccc(C(=O)/C=C/c2cc(-c3cc(OC)c(OC)c(OC)c3)n[nH]2)cc1	3.02
COc1cc(-c2cc(/C=C/C(=O)c3ccc(F)c(F)c3)[nH]n2)cc(OC)c1OC	12.2

====

System: HL-60(TB)
assay-notes: Cytotoxicity against human HL-60(TB) cells assessed as cell growth at 100 uM after 48 hrs by sulforhodamine B assay relative to control
Type: functional
experimental-setup: HL-60, 48 h, read-out: Activity
As shown below, each of these compounds has a reported growth at 100 µM value.

smiles-str	growth at 100 µM / %
COc1ccc(C(=O)/C=C/c2cc(-c3cc(OC)c(OC)c(OC)c3)n[nH]2)cc1OC	-51
COc1cc(C(=O)/C=C/c2cc(-c3ccc4c(c3)OCO4)n[nH]2)cc(OC)c1OC	-31
COc1cc(-c2cc(/C=C/C(=O)c3ccc(N)cc3)[nH]n2)cc(OC)c1OC	-12
COc1ccc(-c2cc(/C=C/C(=O)c3cc(OC)c(OC)c(OC)c3)[nH]n2)cc1OC	-8
COc1cc(-c2cc(/C=C/C(=O)c3ccc4c(c3)OCO4)[nH]n2)cc(OC)c1OC	-36

====

Test system: KM12
assay-notes: Cytotoxicity against human KM12 cells assessed as cell growth at 0.1 uM after 48 hrs by sulforhodamine B assay relative to control
Assay type: functional
experimental-setup: KM12, 48 h, read-out: Activity
As shown below, each of these compounds has a reported growth at 0.1 µM value.
test-readout: growth at 0.1 µM (%)

smiles-str	test-readout	result-unit	recorded-value
COc1ccc(C(=O)/C=C/c2cc(-c3cc(OC)c(OC)c(OC)c3)n[nH]2)cc1	growth at 0.1 µM	%	94
COc1cc(C(=O)/C=C/c2cc(-c3cc(OC)c(OC)c(OC)c3)n[nH]2)cc(OC)c1OC	growth at 0.1 µM	%	103
COc1ccc(-c2cc(/C=C/C(=O)c3cc(OC)c(OC)c(OC)c3)[nH]n2)cc1OC	growth at 0.1 µM	%	92
COc1ccc(-c2cc(/C=C/C(=O)c3ccc(N)cc3)[nH]n2)cc1	growth at 0.1 µM	%	97
COc1cc(-c2cc(/C=C/C(=O)c3ccc(Cl)c(Cl)c3)[nH]n2)cc(OC)c1OC	growth at 0.1 µM	%	93
COc1cc(-c2cc(/C=C/C(=O)c3ccc4c(c3)OCO4)[nH]n2)cc(OC)c1OC	growth at 0.1 µM	%	95
COc1ccc(-c2cc(/C=C/C(=O)c3ccc(OC)c(OC)c3)[nH]n2)cc1	growth at 0.1 µM	%	103
COc1ccc(C(=O)/C=C/c2cc(-c3cc(OC)c(OC)c(OC)c3)n[nH]2)cc1OC	growth at 0.1 µM	%	92

====

System: OVCAR-4
assay-notes: Cytotoxicity against human OVCAR4 cells assessed as cell growth at 0.1 uM after 48 hrs by sulforhodamine B assay relative to control
Type: functional
experimental-setup: OVCAR-4, 48 h, read-out: Activity

smiles-str	target	growth at 0.1 µM [%]
COc1ccc(-c2cc(/C=C/C(=O)c3ccc(N)cc3)[nH]n2)cc1OC	OVCAR-4	90
COc1cc(C(=O)/C=C/c2cc(-c3ccc4c(c3)OCO4)n[nH]2)cc(OC)c1OC	OVCAR-4	94
COc1cc(-c2cc(/C=C/C(=O)c3ccc(N)cc3)[nH]n2)cc(OC)c1OC	OVCAR-4	105
COc1ccc(-c2cc(/C=C/C(=O)c3cc(OC)c(OC)c(OC)c3)[nH]n2)cc1OC	OVCAR-4	73
COc1cc(C(=O)/C=C/c2cc(-c3cc(OC)c(OC)c(OC)c3)n[nH]2)cc(OC)c1OC	OVCAR-4	95

====

Tested on: LOX IMVI
assay-notes: Cytotoxicity against human LOXIMVI cells assessed as cell growth at 1 uM after 48 hrs by sulforhodamine B assay relative to control
Format: functional
experimental-setup: read-out: Activity

smiles-str	growth at 1 µM
COc1ccc(-c2cc(/C=C/C(=O)c3ccc(N)cc3)[nH]n2)cc1OC	96%
COc1ccc(-c2cc(/C=C/C(=O)c3cc(OC)c(OC)c(OC)c3)[nH]n2)cc1OC	78%
COc1ccc(C(=O)/C=C/c2cc(-c3ccc(OC)c(OC)c3)n[nH]2)cc1OC	68%
COc1cc(-c2cc(/C=C/C(=O)c3ccc(N)cc3)[nH]n2)cc(OC)c1OC	83%
COc1cc(-c2cc(/C=C/C(=O)c3ccc4c(c3)OCO4)[nH]n2)cc(OC)c1OC	91%

====

Test system: TK-10
assay-notes: Cytotoxicity against human TK10 cells assessed as growth inhibition after 48 hrs by sulforhodamine B assay
Assay type: functional
experimental-setup: TK-10, 48 h
test-readout: GI50

smiles-str	recorded-value
COc1ccc(C(=O)/C=C/c2cc(-c3ccc4c(c3)OCO4)n[nH]2)cc1OC	2880 nM
COc1ccc(-c2cc(/C=C/C(=O)c3ccc(N)cc3)[nH]n2)cc1	2810 nM
COc1ccc(-c2cc(/C=C/C(=O)c3ccc(OC)c(OC)c3)[nH]n2)cc1	2110 nM
COc1cc(C(=O)/C=C/c2cc(-c3ccc4c(c3)OCO4)n[nH]2)cc(OC)c1OC	2900 nM

====

Test system: UO-31
assay-notes: Cytotoxicity against human UO31 cells assessed as growth inhibition after 48 hrs by sulforhodamine B assay
Type: functional
experimental-setup: UO-31, 48 h

smiles-str	TGI [nM]
COc1ccc(C(=O)/C=C/c2cc(-c3ccc(OC)c(OC)c3)n[nH]2)cc1OC	3800
COc1ccc(-c2cc(/C=C/C(=O)c3cc(OC)c(OC)c(OC)c3)[nH]n2)cc1OC	2590
COc1cc2c(cc1OC)C(=O)/C(=C/c1cc(-c3ccc4c(c3)OCO4)n[nH]1)C2	2670
COc1ccc(-c2cc(/C=C/C(=O)c3ccc(N)cc3)[nH]n2)cc1	2560
COc1cc(-c2cc(/C=C/C(=O)c3ccc4c(c3)OCO4)[nH]n2)cc(OC)c1OC	5440
COc1ccc(-c2cc(/C=C/C(=O)c3ccc(OC)c(OC)c3)[nH]n2)cc1	2440
COc1cc(C(=O)/C=C/c2cc(-c3ccc4c(c3)OCO4)n[nH]2)cc(OC)c1OC	2670
COc1cc(-c2cc(/C=C/C(=O)c3ccc(F)c(F)c3)[nH]n2)cc(OC)c1OC	14200

====

Tested on: SK-MEL-5
assay-notes: Cytotoxicity against human SK-MEL-5 cells assessed as cell growth at 1 uM after 48 hrs by sulforhodamine B assay relative to control
Format: functional
experimental-setup: SK-MEL-5, 48 h, read-out: Activity
As shown below, each of these compounds has a reported growth at 1 µM value.

smiles-str	growth at 1 µM [%]
COc1cc(-c2cc(/C=C/C(=O)c3ccc(F)c(F)c3)[nH]n2)cc(OC)c1OC	90
COc1cc(-c2cc(/C=C/C(=O)c3ccc4c(c3)OCO4)[nH]n2)cc(OC)c1OC	95
COc1ccc(C(=O)/C=C/c2cc(-c3cc(OC)c(OC)c(OC)c3)n[nH]2)cc1	93
COc1ccc(-c2cc(/C=C/C(=O)c3ccc(OC)c(OC)c3)[nH]n2)cc1	88

====

Tested on: NCI-H23
assay-notes: Cytotoxicity against human NCI-H23 cells assessed as cell growth at 1 uM after 48 hrs by sulforhodamine B assay relative to control
Format: functional
experimental-setup: NCI-H23, 48 h, read-out: Activity

smiles-str	result-unit	growth at 1 µM
COc1ccc(-c2cc(/C=C/C(=O)c3cc(OC)c(OC)c(OC)c3)[nH]n2)cc1OC	%	87
COc1ccc(C(=O)/C=C/c2cc(-c3cc(OC)c(OC)c(OC)c3)n[nH]2)cc1	%	95
COc1cc(C(=O)/C=C/c2cc(-c3ccc4c(c3)OCO4)n[nH]2)cc(OC)c1OC	%	92
COc1ccc(C(=O)/C=C/c2cc(-c3cc(OC)c(OC)c(OC)c3)n[nH]2)cc1OC	%	93
COc1cc2c(cc1OC)C(=O)/C(=C/c1cc(-c3ccc4c(c3)OCO4)n[nH]1)C2	%	92
COc1ccc(-c2cc(/C=C/C(=O)c3ccc(N)cc3)[nH]n2)cc1	%	93

====

Tested on: SNB-75
assay-notes: Cytotoxicity against human SNB75 cells assessed as cell growth at 10 uM after 48 hrs by sulforhodamine B assay relative to control
Format: functional
experimental-setup: SNB-75, 48 h, read-out: Activity
As shown below, each of these compounds has a reported growth at 10 µM value.

smiles-str	growth at 10 µM
COc1ccc(C(=O)/C=C/c2cc(-c3ccc4c(c3)OCO4)n[nH]2)cc1OC	-10%
COc1ccc(-c2cc(/C=C/C(=O)c3ccc(N)cc3)[nH]n2)cc1	6%
COc1ccc(-c2cc(/C=C/C(=O)c3ccc(OC)c(OC)c3)[nH]n2)cc1	-53%
COc1ccc(-c2cc(/C=C/C(=O)c3cc(OC)c(OC)c(OC)c3)[nH]n2)cc1OC	-46%
